tested on: HOP-62; assay: NCI tumour cell line growth inhibition, 48 h
Calls of active or inactive are those of the source. No stated cut-off is given here; in the data, active = GI50 up to about 1.1 µM and inactive = higher.

- COMPOUND: "O=C(CCn1[nH]c(=O)c(Cl)c(Cl)c1=O)NOCCCc1ccccc1"
  TARGET OR TEST SYSTEM: "HOP-62"
  GI50: "> 100 µM (inactive)"
- COMPOUND: "CC(=O)Nc1ccc(NC(=O)c2c(Cl)c(Cl)c(Cl)c(Cl)c2-c2nc3ccccc3[nH]2)cc1"
  TARGET OR TEST SYSTEM: "HOP-62"
  GI50: "53.3 µM (inactive)"
- COMPOUND: "CCOc1ncn(-c2ccc(NC(=S)Nc3ncccn3)cc2)n1"
  TARGET OR TEST SYSTEM: "HOP-62"
  GI50: "> 100 µM (inactive)"
- COMPOUND: "Cc1cnoc1/N=C1\\C=C(Nc2oncc2C)C(=O)c2ccccc21"
  TARGET OR TEST SYSTEM: "HOP-62"
  GI50: "> 100 µM (inactive)"
- COMPOUND: "Cc1c(C)c2ccc(OCC(O)COC(C)C)c(C)c2oc1=O (stereo unspecified)"
  TARGET OR TEST SYSTEM: "HOP-62"
  GI50: "28.7 µM (inactive)"
- COMPOUND: "CN(C)CCNc1nc2ccccc2c2c1CCCC2"
  TARGET OR TEST SYSTEM: "HOP-62"
  GI50: "16.5 µM (inactive)"

* * *

test system: NCI-H460; assay: NCI tumour cell line growth inhibition, 48 h
The source made the active and inactive calls. No stated cut-off is given here; in the data, active = GI50 up to about 1.1 µM and inactive = higher.
Outcomes: true (1) for active, false (0) for inactive

- COMPOUND: "COc1ccc2c(c1)-c1c(c3ccccc3n1CCN1CCOCC1)CC2"
  ASSIGNED CLASS: "false (0)"
- COMPOUND: "CC1=C[C@@H](C)C[C@]2(C)CC[C@H](O2)[C@]23CC[C@](CO)(C[C@H](O2)[C@@H]2O[C@@](C)(CC2=O)[C@@H](O)[C@H]2CC[C@@]4(CCC[C@@H](O4)[C@H](C)C(=O)O[C@H]4C[C@H]([C@]5(O)OCC[C@H](C)[C@@H]5O)O[C@H]4C=C1)O2)O3"
  ASSIGNED CLASS: "true (1)"
- COMPOUND: "O=C1OC(c2ccc([N+](=O)[O-])cc2)=N/C1=C\\c1ccc(O)cc1"
  ASSIGNED CLASS: "false (0)"
- COMPOUND: "CC1=N/C(=C\\c2ccc(N)cc2)C(=O)N1Nc1nnc(NN2C(=O)/C(=C/c3ccc(N)cc3)N=C2C)c2ccccc12"
  ASSIGNED CLASS: "false (0)"
- COMPOUND: "CCOC(=O)CC(N1CC1)N1CC1"
  ASSIGNED CLASS: "false (0)"
- COMPOUND: "CC(=O)CC(=O)CCCC(=O)Nc1ccc(Cl)cc1Cl"
  ASSIGNED CLASS: "false (0)"
- COMPOUND: "Cc1cc(C(=C2C=CC(=[N+](C)C)C=C2)c2ccc([N+](C)(C)C)cc2)ccc1N(C)C"
  ASSIGNED CLASS: "false (0)"
- COMPOUND: "C=C(C)CNC(=S)N(N)c1ccc2ccccc2c1"
  ASSIGNED CLASS: "false (0)"
- COMPOUND: "CN(C)Cc1cc(/N=N/c2cccc(Cl)c2)ccc1O"
  ASSIGNED CLASS: "false (0)"
- COMPOUND: "CN(C)CCNc1nc2ccccc2c2c1CCCC2"
  ASSIGNED CLASS: "false (0)"
- COMPOUND: "Cc1cn(C2OC(CO[Si](C)(C)C(C)(C)C)/C(=C\\C#N)C2O[Si](C)(C)C(C)(C)C)c(=O)[nH]c1=O (stereo not drawn)"
  ASSIGNED CLASS: "false (0)"
- COMPOUND: "c1ccc([P+](c2ccccc2)(c2ccccc2)c2ccc([P+](c3ccccc3)(c3ccccc3)c3ccccc3)c3ccccc23)cc1"
  ASSIGNED CLASS: "false (0)"
- COMPOUND: "CN(/N=C/c1cccc2cccnc12)c1c([N+](=O)[O-])cc([N+](=O)[O-])cc1[N+](=O)[O-]"
  ASSIGNED CLASS: "false (0)"
- COMPOUND: "Nc1nncs1"
  ASSIGNED CLASS: "false (0)"
- COMPOUND: "Cn1cc(NC(=O)c2cc(NC(=O)CNC(=N)N)cn2C)cc1C(=O)NCCC(=N)N [NETROPSIN CHLORIDE]"
  ASSIGNED CLASS: "false (0)"
- COMPOUND: "CC1=C2C(O)C(C(C)C(=O)N(C)C)CCC2(C)C=CC1=O (stereo not drawn)"
  ASSIGNED CLASS: "false (0)"
- COMPOUND: "N=C(NC(=S)N1CCCCC1)N1CCCCC1"
  ASSIGNED CLASS: "false (0)"
- COMPOUND: "O=c1oc2ccc3ccccc3c2cc1-c1cn2c(n1)sc1ccccc12"
  ASSIGNED CLASS: "false (0)"

* * *

test system: DU-145; assay: NCI tumour cell line growth inhibition, 48 h
Calls of active or inactive are those of the source. No stated cut-off is given here; in the data, active = GI50 up to about 1.1 µM and inactive = higher.
Outcomes: active, inactive

- COMPOUND: "COc1cccc(/C=C2\\CCC(CN(C)C)C2=O)c1 (configuration not stated)"
  ASSIGNED CLASS: "inactive"
- COMPOUND: "COc1cc2cc(C(=O)N3CC(COS(C)(=O)=O)c4c3cc([N+](=O)[O-])c3ccccc43)[nH]c2c(OC)c1OC (configuration not stated)"
  ASSIGNED CLASS: "active"
- COMPOUND: "O=[N+]([O-])c1ccc(NN=C2CN3CCN(C2)c2ccccc23)c([N+](=O)[O-])c1"
  ASSIGNED CLASS: "inactive"
- COMPOUND: "O=P(O)(O)C(N=C(Nc1ccccc1)Nc1ccccc1)P(=O)(O)O"
  ASSIGNED CLASS: "inactive"
- COMPOUND: "O=C1O/C(=C\\c2ccc(O)c(Br)c2)C(c2ccc(O)c(Cl)c2)=C1Br"
  ASSIGNED CLASS: "inactive"
- COMPOUND: "O=C1C2C(C(=O)N1c1ccccc1)C1(c3ccccc3)CCC2(C(=O)c2ccccc2)O1 (configuration not stated)"
  ASSIGNED CLASS: "inactive"
- COMPOUND: "[O-][n+]1onc(-c2ccccc2)c1CN1CCOCC1"
  ASSIGNED CLASS: "inactive"
- COMPOUND: "COc1ccccc1C(=O)N(C)c1ccc(Cl)c(C(=O)OC(C)C)c1"
  ASSIGNED CLASS: "inactive"
- COMPOUND: "c1ccc(C2(c3cc4ccccc4[nH]3)OCCO2)nc1"
  ASSIGNED CLASS: "inactive"
- COMPOUND: "Cc1occc1C(=S)Nc1ccc(Cl)c(/C=N/OC(C)(C)C)c1"
  ASSIGNED CLASS: "inactive"
- COMPOUND: "Cc1c(C)c2ccc(OCC(O)COC(C)C)c(C)c2oc1=O (configuration not stated)"
  ASSIGNED CLASS: "inactive"
- COMPOUND: "Oc1cc(-c2ccc3ccccc3c2)nc2ncc(Cl)cc12"
  ASSIGNED CLASS: "inactive"
- COMPOUND: "N=C1OC(c2cccc(Cl)c2)C(NNS(=O)(=O)c2ccccc2)=C1O (configuration not stated)"
  ASSIGNED CLASS: "inactive"
- COMPOUND: "CCc1ccc(CCC(=O)O)nc1"
  ASSIGNED CLASS: "inactive"
- COMPOUND: "CCOC(=O)NC(Nc1ncccn1)(C(F)(F)F)C(F)(F)F"
  ASSIGNED CLASS: "inactive"
- COMPOUND: "COc1cc(C2c3cc4c(cc3[C@@H](Nc3ccc(N)cc3)C3COC(=O)[C@H]23)OCO4)cc(OC)c1O (some centres not stated)"
  ASSIGNED CLASS: "active"
- COMPOUND: "O=C1OC(c2ccc([N+](=O)[O-])cc2)=N/C1=C\\c1ccc(O)cc1"
  ASSIGNED CLASS: "inactive"
- COMPOUND: "O=C1NC(=O)[C@H]2C3C=CC([C@@H]12)[C@@H]1C(=O)NC(=O)[C@H]31"
  ASSIGNED CLASS: "inactive"
- COMPOUND: "O=C(O)c1cc(-c2ccc3c(O)ccc(O)c3c2)ccc1O"
  ASSIGNED CLASS: "inactive"
- COMPOUND: "CCOc1ccc(N/C(Cl)=C(Cl)\\C(=C(\\Nc2ccc(OCC)cc2)n2nnc3ccccc32)[N+](=O)[O-])cc1"
  ASSIGNED CLASS: "inactive"
- COMPOUND: "CC(C)NC(=O)OCc1c(COC(=O)NC(C)C)c(-c2ccc(Cl)c(Cl)c2)n2c1CCC2"
  ASSIGNED CLASS: "inactive"
- COMPOUND: "Nc1nc2[nH]cnc2c(=S)[nH]1"
  ASSIGNED CLASS: "active"
- COMPOUND: "C=CCOCCCCC(C(C)=O)C(=O)OC (configuration not stated)"
  ASSIGNED CLASS: "inactive"
- COMPOUND: "COc1ccc(CSCc2cc(OC)c(OC)c(OC)c2)cc1"
  ASSIGNED CLASS: "inactive"
- COMPOUND: "Cc1cccnc1N/C=C1\\C(=O)NC(=O)N(C)C1=O"
  ASSIGNED CLASS: "inactive"
- COMPOUND: "CC(=O)O[C@H]1C#C/C=C\\C#CC[C@@H]2C(=O)N[C@@H]12"
  ASSIGNED CLASS: "inactive"
- COMPOUND: "O=C1/C(=C/c2cccc3ccccc23)CCc2ccc([N+](=O)[O-])cc21"
  ASSIGNED CLASS: "inactive"
